Assay: nonspecific flux increase, KCNQ1-free cells – parental CHO cells, counter-screen for KCNQ1 potentiator project (AID 493006)
Conditions: parental CHO-K1 cells, FluxOR thallium flux, at 10 µM
Calls of active or inactive are those of the source.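 The calls were made as follows: active = duplicate-averaged activation above buffer control mean plus 5 SD of those controls; inactive = the rest.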
Can you answer with just one of these options? yes (1) = active, no (0) = inactive

Input line: Recorded call for C=CCSc1nc2c(c(=O)[nH]c(=O)n2C)n1C/C=C(/C)Cl ?
Output line: no (0)

Input line: In this assay, the call recorded for CN(C)CC(CCC(CN(C)C)C(O)(c1ccccc1)c1ccccc1)C(O)(c1ccccc1)c1ccccc1 (stereo unspecified) was what?
Output line: no (0)

Input line: Kindly provide the recorded test outcome for the following molecule: CCCc1nc2oc3c(NCCN(C)C)ncnc3c2c2c1CCCC2
Output line: no (0)

Input line: Please state the recorded outcome for this molecule: CCn1c2ccccc2c2cc(NC(=O)CNC)ccc21
Output line: no (0)

Input line: // param item: CCn1c(=S)[nH]c2sc3c(c2c1=O)CCCCC3 ; yields the recorded call
Output line: yes (1)

Input line: Fill in: this test's call for COc1cc(C2(c3ccc(O)c(OC)c3)C(=O)Nc3c(C)cc(Br)cc32)ccc1O is ___
Output line: yes (1)

Input line: Outcome? Oc1c(Cl)cc(Cl)c(Cl)c1Cc1c(O)c(Cl)cc(Cl)c1Cl
Output line: yes (1)

Input line: Would you mind telling me which call this test gave CN(CCCNC(=O)CCCOc1cc(=O)n(C)c2ccccc12)Cc1ccccc1 ?
Output line: no (0)

Input line: Hey, what did the test say about CC1=C/C(=N\OS(=O)(=O)c2ccccc2)C=CC1=O ?
Output line: no (0)

Input line: Record lookup: outcome of this test for CCOC(=O)c1sc(=S)n2c1[nH]c(=O)c1ccc(C(=O)OC)cc12 ?
Output line: yes (1)

Input line: Hi, sorry to bother you, what did the test record for Cc1cccc(NC(=S)NC(=O)c2ccc(Br)o2)c1 ?
Output line: yes (1)

* * *

Target: Short transient receptor potential channel 6 (Mus musculus)
Assay: TRPC6 opening by TRPC4 activator hits – cell-based, HEK293, membrane potential dye, duplicate, selectivity assay for TRPC4 activator project, confirmation (AID 434950)
Conditions: HEK293 TRPC6, membrane potential fluorescence, at 10 µM; activation
Active and inactive are the calls of the source.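 How the source made its calls: active means membrane potential signal rise above negative control mean plus 3 SD in both duplicates, also active in the earlier TRPC4 screen; inactive means the rest.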
Readout Label: outcome

[[record]]
compound = "Nc1cc(=O)nc(SCC(=O)N2CCN(c3ccccc3)CC2)n1-c1ccc(F)cc1"
result = "inactive"

[[record]]
compound = "Cc1cc(C)nc(NC(N)=NC2CCCCC2)n1"
result = "inactive"

[[record]]
compound = "Cc1sc2ncnc(NCC(c3ccccc3)N(C)C)c2c1C (stereo unspecified)"
result = "inactive"

[[record]]
compound = "CSCC[C@H](NC(=O)N1CCn2c1nc1ccccc12)C(=O)NCc1ccc(C)cc1"
result = "inactive"

[[record]]
compound = "CCOCCCNCc1cc(Br)ccc1OCc1ccccc1"
result = "inactive"


Measured outcome of CCc1cc(=O)oc2c(CNCc3ccccc3F)c(O)c(Cl)cc12 : inactive

Measured outcome, CN(C)C(CNc1ccc(C(N)=O)cc1[N+](=O)[O-])c1ccccc1 (stereo unspecified) : inactive

* * *

Target: Short transient receptor potential channel 4 (Mus musculus) (UniProt Q9QUQ5)
Sequence (Q9QUQ5 whole entry, looked up): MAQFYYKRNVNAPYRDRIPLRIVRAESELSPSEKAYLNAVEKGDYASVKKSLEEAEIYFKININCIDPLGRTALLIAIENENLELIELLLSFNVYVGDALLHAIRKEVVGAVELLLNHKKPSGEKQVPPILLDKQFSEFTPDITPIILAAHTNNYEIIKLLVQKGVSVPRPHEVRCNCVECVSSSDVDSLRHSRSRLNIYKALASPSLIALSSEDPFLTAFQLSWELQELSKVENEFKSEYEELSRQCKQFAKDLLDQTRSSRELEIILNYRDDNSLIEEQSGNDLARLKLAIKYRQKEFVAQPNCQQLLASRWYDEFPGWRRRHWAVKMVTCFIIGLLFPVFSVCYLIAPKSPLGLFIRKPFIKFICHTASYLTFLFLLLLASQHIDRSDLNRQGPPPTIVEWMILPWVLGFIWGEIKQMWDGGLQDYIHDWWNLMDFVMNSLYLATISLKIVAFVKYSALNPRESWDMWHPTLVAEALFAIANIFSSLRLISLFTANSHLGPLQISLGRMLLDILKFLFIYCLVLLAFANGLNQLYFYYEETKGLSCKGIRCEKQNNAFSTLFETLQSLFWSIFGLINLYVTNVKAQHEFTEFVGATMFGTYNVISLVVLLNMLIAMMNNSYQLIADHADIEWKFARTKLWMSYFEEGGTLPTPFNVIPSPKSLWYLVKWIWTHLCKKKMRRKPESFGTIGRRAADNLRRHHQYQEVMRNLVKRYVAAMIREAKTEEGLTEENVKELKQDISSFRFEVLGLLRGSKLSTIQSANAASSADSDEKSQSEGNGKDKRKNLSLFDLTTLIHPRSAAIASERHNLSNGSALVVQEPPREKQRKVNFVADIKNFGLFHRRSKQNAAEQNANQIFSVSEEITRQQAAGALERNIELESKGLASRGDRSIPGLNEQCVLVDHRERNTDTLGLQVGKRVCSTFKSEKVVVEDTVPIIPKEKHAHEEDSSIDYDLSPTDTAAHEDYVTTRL
Assay: blockers of DAMGO-evoked TRPC4 calcium flux – cell-based, second round, Fluo4, HEK293 TRPC4beta/mu-opioid, 1 µM, confirmation (AID 2637)
Conditions: at 1 µM
Activity calls are given as the source filed them.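 The calls were made as follows: active = calcium signal ratio cut to more than 3 SD under the fully stimulated control mean yet still positive, in both repeats and the primary screen; inactive = the rest.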
Result category, one only: active, inactive

Input line: Short answer needed: outcome of this test for CCOc1ccccc1C1CC(c2ccc(Cl)cc2)Nc2nc(N)nn21 (stereo not drawn) ?
Output line: inactive

Input line: What did the test return for CC(=O)Nc1ccc(S(=O)(=O)NC2=C(N3CCN(Cc4ccccc4)CC3)C(=O)c3ccccc3C2=O)cc1 ?
Output line: active

Input line: What classification did OCCN(CCO)c1ncnc2c1sc1nc(N3CCOCC3)c3c(c12)CCCC3 end up with in this test?
Output line: inactive

Input line: Record request — test call for O=C(NCCc1ccccn1)c1ccc(COc2ccccc2)o1
Output line: inactive

Input line: Dear all, I need the recorded test outcome for CN(CCNC(=O)c1ccc(/C=N/O)nc1)Cc1ccccc1 , thank you.
Output line: inactive

Input line: Per the records of this test, what outcome belongs to COCC1CCN(Cc2cn(-c3ccccc3F)nc2-c2cc(C)sc2C)CC1 ?
Output line: inactive

Input line: Could you please tell me the result logged for Clc1cc(Cl)cc(C2=NC(Cc3ccccc3)CO2)c1 (stereo not drawn) in this assay?
Output line: inactive

Input line: Hi, sorry to bother you, what did the test record for O=C(NCc1ccccc1)C1=C[C@H](c2ccccc2)C[C@H](OCc2ccc(CO)cc2)O1 ?
Output line: inactive

Input line: Hi, sorry to bother you, what did the test record for Cc1ccccc1-c1n[nH]c(=S)n1Cc1ccccc1 ?
Output line: inactive

Input line: Query: recorded result category for Fc1ccc(-n2cc(CNCCc3cccnc3)c(-c3ccccc3Cl)n2)cc1 in this test
Output line: inactive

Input line: Check the results log: what was the call for CCCn1c(NC(=O)c2ccc(Cl)c(S(=O)(=O)N3CCCC3)c2)nc2ccccc21 ?
Output line: inactive

Input line: Answer briefly: the call reported for Cc1ccc(/C=N/NC(=O)CSc2nc3ccccc3n2Cc2ccccc2)o1 in this assay.
Output line: inactive

Input line: How did this test come out for COc1ccc(C(=O)Nc2ccccc2N2CCN(C(=O)c3ccccc3)CC2)cc1Br ?
Output line: inactive

Input line: Which outcome was entered for the compound O=C(COC(=O)C1CC1)Nc1nc(-c2ccc(F)c(F)c2)cs1 in this test?
Output line: inactive

Input line: Could you kindly confirm the outcome this assay logged for Cc1ccc2c(c1)N(C(=O)CCC(=O)Nc1ccccc1Cl)CC(C)O2 (stereo not drawn) ?
Output line: inactive

Input line: Dear all, I need the recorded test outcome for COc1ccccc1CCc1nnc(CCC(=O)NCCCOc2cccnc2)o1 , thank you.
Output line: inactive

Input line: Test call for this compound, please: Nc1cc(N2CCCCC2)c([N+](=O)[O-])cc1Cl
Output line: active

Input line: Check the results log: what was the call for CN(C)CCCN(C(=O)c1ccc(S(=O)(=O)N2CCc3ccccc3C2)cc1)c1nc2c(F)cc(F)cc2s1 ?
Output line: inactive

Input line: Fill in: this test's call for Cc1cc(OCc2cc(C(=O)NCC3(C)COC3)no2)cc(C)c1Cl is ___
Output line: inactive

Input line: Would you mind telling me which call this test gave CCOC(=O)C1=NNC(C(=O)c2ccc(Cl)cc2)C1c1ccc(OC)cc1 (stereo not drawn) ?
Output line: inactive

Input line: GET /call?item= CCN1CCN(c2ccc(S(=O)(=O)N3CCOCC3)cc2NC(=O)c2ccccc2SC)CC1 returns the recorded outcome of this test.
Output line: inactive

Input line: Per the assay record, what outcome was assigned to c1ccc(Nc2nc(N3CCCCC3)nc(N3CCNCC3)n2)cc1 ?
Output line: inactive

Input line: Hello, I am checking results. What call was entered for O=C(c1ccc2c(c1)OCO2)C1CCCN(Cc2cc(F)ccc2-n2cccn2)C1 (stereo not drawn) ?
Output line: inactive

Input line: Given CCn1cc(CNCc2cn(-c3ccccc3C)nc2-c2ccc(OC)c(F)c2)cn1 , state the outcome it received in this test.
Output line: inactive

Input line: Hey, what did the test say about CCN1CCN(c2nc(N)c([N+](=O)[O-])c(Nc3ccc(C)c(C)c3)n2)CC1 ?
Output line: inactive

Input line: # lookup: test call for CCOC(=O)C1(CC2CCCCO2)CCN(Cc2cc(F)ccc2-n2cccn2)CC1 (stereo not drawn)
Output line: inactive

Input line: What call does the record list for Nc1cc(=O)nc(SCC(=O)N2CCN(c3ccccc3)CC2)n1-c1ccc(F)cc1 ?
Output line: active

Input line: Dear all, I need the recorded test outcome for O=C(c1sc2ccccc2c1Cl)N(Cc1ccccc1)C1CCS(=O)(=O)C1 (stereo not drawn) , thank you.
Output line: inactive

Input line: Outcome? OCC1(CC2CCCCO2)CCN(Cc2ccccc2-c2ccco2)CC1 (stereo not drawn)
Output line: inactive

Input line: Status in this test for O=C(Nc1ccccc1Oc1cccnc1)C1CCCN(Cc2ccc(F)cc2)C1 (stereo not drawn) ?
Output line: active

Input line: # fetch the recorded call for Cc1ccccc1OCCn1c(C)nc2ccccc21 here
Output line: active

Input line: Any idea what this test logged for Cc1cc(Nc2ccc3c(c2)OCCO3)c2ccccc2n1 ?
Output line: inactive

Input line: Which outcome did this test record for the compound CN(C)CCCSc1nc(-c2ccccc2)nc2c1CCC2 ?
Output line: inactive

Input line: Identify the outcome logged in this assay for the compound shown: Cc1cc(N2CCOCC2)nc(NCc2ccccc2)n1
Output line: inactive

Input line: # fetch the recorded call for Cc1ccccc1N1CC(O)(c2cccs2)[N+]2=C1CCCC2 (stereo not drawn) here
Output line: inactive

Input line: I'd appreciate the recorded outcome for Nc1c2c(nc3c1CCCC3)CCCC2 (tested in a mixture with another compound) from this test.
Output line: active

Input line: Please let me know the test result on file for CCn1c(C2CC(=O)N(Cc3ccccc3)C2)nc2ccccc21 (stereo not drawn) .
Output line: inactive

Input line: Which outcome was entered for the compound S=c1[nH]nc(-c2cc3c(s2)-c2ccccc2CC3)o1 in this test?
Output line: inactive

Input line: What classification did CC(C)(C)CC(C)(C)NCC(O)COc1ccc2c(c1)CCC2 (stereo not drawn) end up with in this test?
Output line: inactive

Input line: Outcome logged for CN(C)CCCN(Cc1cc2cc3c(cc2[nH]c1=O)OCO3)C(=S)NCc1ccco1 in this assay:
Output line: active

Input line: // param item: Cc1ccc(-c2ccc3c(c2)S(=O)(=O)c2ccccc2C3=O)cc1 ; yields the recorded call
Output line: inactive

Input line: Assay outcome for Cc1ccccc1N(C(=O)c1snc(C(N)=O)c1N)C(C(=O)NC1CCCC1)c1ccco1 (stereo not drawn) : what was it?
Output line: inactive

Input line: Could you please tell me the result logged for Cc1ccc(-n2c(C)cc(C)c(C#N)c2=O)cc1Cl in this assay?
Output line: inactive

Cited source for all entries: PubChem BioAssay
